meta.source: ChEMBL document CHEMBL1649124

- Tested on: Acinetobacter pittii
- procedure-text: Antibacterial activity against Acinetobacter genomosp. 3 isolate 195 by Etest method
- Assay type: functional
Residues, ends and D or L forms follow the SMILES beside them. *: point of attachment. βNA = c1ccc2cc(N*)ccc2c1
measured-metric: MIC

>  <compound>
Cl.Cl.N=C(N)NCCC[C@H](NC(=O)[C@@H](N)Cc1ccccc1)C(=O)Nc1ccc2ccccc2c1 (H-Phe-Arg-βNA)

>  <test-value>
400 µg/mL

$$$$
>  <compound>
Cc1onc(-c2ccccc2Cl)c1C(=O)N[C@@H]1C(=O)N2[C@@H]1SC(C)(C)[C@@H]2C(=O)O

>  <test-value>
1020 µg/mL

$$$$

Would you be so kind as to report MIC for each listed record?
1. CO/N=C(\C(=O)N[C@@H]1C(=O)N2C(C(=O)O)=C(COC(N)=O)CS[C@H]12)c1ccco1
2. CC(=O)OCC1=C(C(=O)O)N2C(=O)[C@@H](NC(=O)Cc3cccs3)[C@H]2SC1

["64 µg/mL", "> 256 µg/mL"]

====

- System: Escherichia coli
- procedure-text: Antibacterial activity against Escherichia coli DH5alpha carrying ampC gene of Acinetobacter genomosp. 3 isolate 14 by Etest method
- Format: functional
measured-metric: MIC (µg/mL)
Numbers only, in µg/mL.

Recorded results for 4 compounds are shown here.
>  <compound-structure>
CO/N=C(\C(=O)N[C@@H]1C(=O)N2C(C(=O)[O-])=C(C[N+]3(C)CCCC3)CS[C@H]12)c1csc(N)n1

>  <MIC (µg/mL)>
0.023

$$$$
>  <compound-structure>
C[C@@H](O)[C@H]1C(=O)N2C(C(=O)O)=C(S[C@@H]3CN[C@H](C(=O)N(C)C)C3)[C@H](C)[C@H]12

>  <MIC (µg/mL)>
0.023

$$$$
>  <compound-structure>
CC1(C)S[C@@H]2[C@H](NC(=O)[C@H](N)c3ccccc3)C(=O)N2[C@H]1C(=O)O

>  <MIC (µg/mL)>
128

$$$$
>  <compound-structure>
CO[C@@]1(NC(=O)Cc2cccs2)C(=O)N2C(C(=O)O)=C(COC(N)=O)CS[C@@H]21

>  <MIC (µg/mL)>
32

$$$$

Let us move to another entry and its MIC.
For reference, reported MIC for `CO/N=C(\C(=O)N[C@@H]1C(=O)N2C(C(=O)O)=C(COC(N)=O)CS[C@H]12)c1ccco1` stands at 64

====

- System: Acinetobacter pittii
- procedure-text: Antibacterial activity against Acinetobacter genomosp. 3 isolate 243 by Etest method
- Format: functional
Provide the recorded MIC for the entries that follow.
Numbers only, in µg/mL.

Batch of 4 compounds: report MIC for each.
1. CO/N=C(\C(=O)N[C@@H]1C(=O)N2C(C(=O)O)=C(COC(N)=O)CS[C@H]12)c1ccco1
2. CC(C)(O/N=C(\C(=O)N[C@@H]1C(=O)N2C(C(=O)[O-])=C(C[n+]3ccccc3)CS[C@H]12)c1csc(N)n1)C(=O)O
3. CO[C@@]1(NC(=O)Cc2cccs2)C(=O)N2C(C(=O)O)=C(COC(N)=O)CS[C@@H]21
4. CO/N=C(\C(=O)N[C@@H]1C(=O)N2C(C(=O)[O-])=C(C[N+]3(C)CCCC3)CS[C@H]12)c1csc(N)n1

32
4
48
3

====

- Tested on: Acinetobacter pittii
- procedure-text: Antibacterial activity against Acinetobacter genomosp. 3 isolate 56 by Etest method
- Format: functional
Field: MIC. Provide a value for each of the compounds that follow.
One number for each entry, in µg/mL.

Solved entries (count: 3):
>  <compound>
CO/N=C(\C(=O)N[C@@H]1C(=O)N2C(C(=O)O)=C(COC(C)=O)CS[C@H]12)c1csc(N)n1 [CEFOTAXIME]

>  <test-value>
4

$$$$
>  <compound>
CO/N=C(\C(=O)N[C@@H]1C(=O)N2C(C(=O)[O-])=C(C[N+]3(C)CCCC3)CS[C@H]12)c1csc(N)n1

>  <test-value>
2

$$$$
>  <compound>
C[C@@H](O)[C@H]1C(=O)N2C(C(=O)O)=C(SCCNC=N)C[C@H]12 [IMIPENEM ANHYDROUS]

>  <test-value>
0.19

$$$$

Would you kindly look at the next entry?
Lab note: measured MIC of CCN1CCN(C(=O)N[C@@H](C(=O)N[C@@H]2C(=O)N3[C@@H]2SC(C)(C)[C@@H]3C(=O)O)c2ccccc2)C(=O)C1=O [PIPERACILLIN] was 12

====

- Tested on: Acinetobacter pittii
- procedure-text: Antibacterial activity against Acinetobacter genomosp. 3 isolate 52 by Etest method
- Format: functional
Residues, ends and D or L forms follow the SMILES beside them. *: point of attachment. βNA = c1ccc2cc(N*)ccc2c1
measured-metric: MIC (µg/mL)
Answers are plain numbers, in µg/mL.

Worked cases, MIC given:
>  <compound>
CO/N=C(\C(=O)N[C@@H]1C(=O)N2C(C(=O)[O-])=C(C[N+]3(C)CCCC3)CS[C@H]12)c1csc(N)n1

>  <MIC / µg/mL>
2

$$$$
>  <compound>
Cl.Cl.N=C(N)NCCC[C@H](NC(=O)[C@@H](N)Cc1ccccc1)C(=O)Nc1ccc2ccccc2c1 (H-Phe-Arg-βNA)

>  <MIC / µg/mL>
400

$$$$

Go through the list and state MIC for each entry.
1. CO/N=C(\C(=O)N[C@@H]1C(=O)N2C(C(=O)O)=C(COC(C)=O)CS[C@H]12)c1csc(N)n1 [CEFOTAXIME]
2. C[C@@H](O)[C@H]1C(=O)N2C(C(=O)O)=C(S[C@@H]3CN[C@H](C(=O)N(C)C)C3)[C@H](C)[C@H]12 [MEROPENEM]
3. Cc1onc(-c2ccccc2Cl)c1C(=O)N[C@@H]1C(=O)N2[C@@H]1SC(C)(C)[C@@H]2C(=O)O [CLOXACILLIN]
4. C[C@@H](O)[C@H]1C(=O)N2C(C(=O)O)=C(SCCNC=N)C[C@H]12 [IMIPENEM ANHYDROUS]
5. CCN1CCN(C(=O)N[C@@H](C(=O)N[C@@H]2C(=O)N3[C@@H]2SC(C)(C)[C@@H]3C(=O)O)c2ccccc2)C(=O)C1=O [PIPERACILLIN]
6. CC(C)(O/N=C(\C(=O)N[C@@H]1C(=O)N2C(C(=O)[O-])=C(C[n+]3ccccc3)CS[C@H]12)c1csc(N)n1)C(=O)O [CEFTAZIDIME]
7. CO/N=C(\C(=O)N[C@@H]1C(=O)N2C(C(=O)O)=C(COC(N)=O)CS[C@H]12)c1ccco1 [CEFUROXIME]

1. 12
2. 0.5
3. 1020
4. 0.25
5. 12
6. 3
7. 32

====

Answer each item with its documented MIC.
- Test system: Escherichia coli
- procedure-text: Antibacterial activity against Escherichia coli DH5alpha carrying ampC gene of Acinetobacter genomosp. 3 isolate 14 by Etest method
- Format: functional
Answers are plain numbers, in µg/mL.

The examples below pair each entry with its known result.
>  <molecule>
C[C@@H](O)[C@H]1C(=O)N2C(C(=O)O)=C(SCCNC=N)C[C@H]12 [IMIPENEM ANHYDROUS]

>  <MIC [µg/mL]>
0.125

$$$$
>  <molecule>
CCN1CCN(C(=O)N[C@@H](C(=O)N[C@@H]2C(=O)N3[C@@H]2SC(C)(C)[C@@H]3C(=O)O)c2ccccc2)C(=O)C1=O [PIPERACILLIN]

>  <MIC [µg/mL]>
4

$$$$
>  <molecule>
CO/N=C(\C(=O)N[C@@H]1C(=O)N2C(C(=O)O)=C(COC(C)=O)CS[C@H]12)c1csc(N)n1 [CEFOTAXIME]

>  <MIC [µg/mL]>
0.75

$$$$

Continue with the molecule presented below.
Summary for this molecule, CC(C)(O/N=C(\C(=O)N[C@@H]1C(=O)N2C(C(=O)[O-])=C(C[n+]3ccccc3)CS[C@H]12)c1csc(N)n1)C(=O)O [CEFTAZIDIME] : MIC is 0.38

====

- Tested on: Acinetobacter pittii
- procedure-text: Antibacterial activity against Acinetobacter genomosp. 3 isolate 103 by Etest method
- Type: functional
measured-metric: MIC

Some molecules with recorded MIC:
>  <molecule>
N#CC(C#N)=NNc1cccc(Cl)c1 [CARBONYL CYANIDE M-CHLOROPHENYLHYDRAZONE]

>  <system-name>
Acinetobacter pittii

>  <MIC>
> 400 µM

$$$$
>  <molecule>
CC(=O)OCC1=C(C(=O)O)N2C(=O)[C@@H](NC(=O)Cc3cccs3)[C@H]2SC1

>  <system-name>
Acinetobacter pittii

>  <MIC>
> 256 µg/mL

$$$$

Now consider a different molecule.
Consider `CC1(C)S[C@@H]2[C@H](NC(=O)[C@H](N)c3ccccc3)C(=O)N2[C@H]1C(=O)O` . Its measured MIC is > 256 µg/mL
